Tested on: JJN-3
Assay: Proliferation of HMCL, [3H]-thymidine incorporation
Format: cell-based, human
Conditions: Homo sapiens, JJN-3, 72 h; 3 days
Procedure: The human myeloma cell lines (HMCL) LP-1 and OPM-2 were obtained from DSM (Braunschweig, Germany). JJN-3 was kindly provided by B Van Campo (VUB, Belgium). Cells are maintained in RPMI 1640 culture medium supplemented with 10% fetal calf serum (FCS), 2mM glutamine, antibiotics (100 IU/ml penicillin and 100 μg/ml streptomycin) and 10 μM 2-β-mercaptoethanol. The three HMCL are studied Le., LP-1, OPM-2 and JJN-3. […] [^3H]-thymidine, incorporation is quantified by liquid scintillation spectroscopy.
recorded-metric: IC50 (µM)
# output: bare number, implied unit µM

Ask: I'm curious: which IC50 was measured for NCCC(O)(P(=O)(O)O)P(=O)(O)O [pamidronate] tested on JJN-3?
Reply: 107

Cited source: patent US20020061866A1
